MEASUREMENT TARGET: cAMP-specific 3',5'-cyclic phosphodiesterase 4A (Homo sapiens)
Sequence (P27815 whole entry): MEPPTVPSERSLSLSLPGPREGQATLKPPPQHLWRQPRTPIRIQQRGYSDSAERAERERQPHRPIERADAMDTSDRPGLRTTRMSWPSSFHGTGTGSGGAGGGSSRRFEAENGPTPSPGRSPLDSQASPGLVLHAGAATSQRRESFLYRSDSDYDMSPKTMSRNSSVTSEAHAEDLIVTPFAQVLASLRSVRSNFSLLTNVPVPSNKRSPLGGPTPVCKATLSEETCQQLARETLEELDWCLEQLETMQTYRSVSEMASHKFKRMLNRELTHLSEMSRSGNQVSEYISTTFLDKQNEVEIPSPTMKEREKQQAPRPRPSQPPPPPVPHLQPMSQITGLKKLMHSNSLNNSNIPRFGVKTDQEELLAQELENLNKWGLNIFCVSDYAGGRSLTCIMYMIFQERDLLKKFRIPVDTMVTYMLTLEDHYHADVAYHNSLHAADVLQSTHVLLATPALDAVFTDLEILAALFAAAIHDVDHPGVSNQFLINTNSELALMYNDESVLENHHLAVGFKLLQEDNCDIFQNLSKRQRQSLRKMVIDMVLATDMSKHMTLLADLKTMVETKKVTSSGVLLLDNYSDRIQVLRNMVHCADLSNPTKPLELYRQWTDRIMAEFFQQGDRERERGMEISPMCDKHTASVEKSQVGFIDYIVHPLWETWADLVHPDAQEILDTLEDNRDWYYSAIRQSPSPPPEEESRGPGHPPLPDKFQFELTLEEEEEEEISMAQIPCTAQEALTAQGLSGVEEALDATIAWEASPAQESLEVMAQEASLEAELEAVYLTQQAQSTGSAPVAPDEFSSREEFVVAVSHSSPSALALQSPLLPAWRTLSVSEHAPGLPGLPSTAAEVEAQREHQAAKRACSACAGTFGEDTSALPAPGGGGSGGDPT
Field: pKi. Provide a value for each of the compounds that follow.
Numbers only, as −log10 of the molar value.

>>> experimental_result("COc1ccc(Cn2cnc(N)c3nc(C(C)(C)OCc4ccc5c(c4)OCO5)nc2-3)cc1OC1CCCC1")
6.83
>>> experimental_result("COc1cccc(COC(C)(C)c2nc3c(N)ncn(Cc4ccc(OC)c(OC5CCCC5)c4)c-3n2)c1")
6.76
>>> experimental_result("COc1ccc(COC(C)(C)c2nc3c(N)ncn(Cc4ccc(OC)c(OC5CCCC5)c4)c-3n2)cc1")
6.95
>>> experimental_result("COc1ccc(Cn2cnc(N)c3nc(C(C)(C)OCc4ccc(OC(F)(F)F)cc4)nc2-3)cc1OC1CCCC1")
6.38
>>> experimental_result("COc1ccc(Cn2cnc(N)c3nc(C(C)(C)OCc4ccc(C)cc4)nc2-3)cc1OC1CCCC1")
6.69
>>> experimental_result("COc1ccc(Cn2cnc(N)c3nc(C(C)OCc4ccccc4)nc2-3)cc1OC1CCCC1 (stereo not drawn)")
4.82

Provide the reported pKi of each entry below, same order.
1. COc1ccc(Cn2cnc(N)c3nc(C(C)(C)OCc4ccc(C#N)cc4)nc2-3)cc1OC1CCCC1
2. COc1ccc(Cn2cnc(N)c3nc(C(C)(C)OCc4ccc(Cl)cc4)nc2-3)cc1OC1CCCC1

# output
1: 5.92; 2: 6.90
